# experimental_system: P2Y purinoceptor 6 (Homo sapiens)
# Sequence (Q15077 whole entry): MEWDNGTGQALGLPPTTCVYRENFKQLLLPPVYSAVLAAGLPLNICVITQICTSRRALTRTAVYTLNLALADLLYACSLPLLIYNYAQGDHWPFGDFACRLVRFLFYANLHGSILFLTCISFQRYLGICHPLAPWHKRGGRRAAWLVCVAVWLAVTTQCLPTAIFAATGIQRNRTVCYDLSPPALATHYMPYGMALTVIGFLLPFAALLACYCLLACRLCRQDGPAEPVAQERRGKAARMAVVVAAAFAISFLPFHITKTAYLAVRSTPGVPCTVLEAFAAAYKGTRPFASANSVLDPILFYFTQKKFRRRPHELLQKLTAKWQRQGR
# experiment_notes: Agonist activity at human P2Y6R expressed in 1321N1 cells assessed as calcium mobilization at 3 uM measured by microplate reader method relative to control
# Format: functional, cell-based
parameter_measured: Activity (%)

Worked examples follow.
>>> assay_result("Nc1nc(=O)n([C@@H]2O[C@H](COP(=O)(O)CP(=O)(O)O)[C@@H](O)[C@H]2O)cc1I")
3.4
>>> assay_result("O=c1cnn([C@@H]2O[C@H](COP(=O)(O)CP(=O)(O)O)[C@@H](O)[C@H]2O)c(=O)[nH]1")
5.2
>>> assay_result("CCn1c(=O)ccn([C@@H]2O[C@H](COP(=O)(O)CP(=O)(O)O)[C@@H](O)[C@H]2O)c1=O")
3.5

I = O=c1ccn([C@@H]2O[C@H](COP(=O)(O)CP(=O)(O)O)[C@@H](O)[C@@H]2O)c(=O)[nH]1
II = O=c1ccn([C@@H]2O[C@H](COP(=O)(O)CP(=O)(O)O)[C@@H](O)[C@H]2O)c(=O)n1Cc1ccccc1
III = Cn1c(=O)n([C@@H]2O[C@H](COP(=O)(O)CP(=O)(O)O)[C@@H](O)[C@H]2O)cc/c1=N/OCc1ccccc1
Given 3 compounds, produce a descending ranking by Activity. List labels; respect the requested ordering. II, III, I
(II: 5.3%, III: 3.6%, I: 2.4%)
